biological target: CETP activity in the serum (Homo sapiens, UniProt P11597); construct: from tissue; host or cells: serum of transgenic hCETP mice; assay: Measurement of the ex vivo activities on transgenic hCETP mice; format: in vivo; conditions: mouse; 30 mg/kg oral, 6 h after administration, serum cholesteryl ester transport; read-out: % inhibition at 30 mg/kg 6 h
Sequence (P11597 18-493): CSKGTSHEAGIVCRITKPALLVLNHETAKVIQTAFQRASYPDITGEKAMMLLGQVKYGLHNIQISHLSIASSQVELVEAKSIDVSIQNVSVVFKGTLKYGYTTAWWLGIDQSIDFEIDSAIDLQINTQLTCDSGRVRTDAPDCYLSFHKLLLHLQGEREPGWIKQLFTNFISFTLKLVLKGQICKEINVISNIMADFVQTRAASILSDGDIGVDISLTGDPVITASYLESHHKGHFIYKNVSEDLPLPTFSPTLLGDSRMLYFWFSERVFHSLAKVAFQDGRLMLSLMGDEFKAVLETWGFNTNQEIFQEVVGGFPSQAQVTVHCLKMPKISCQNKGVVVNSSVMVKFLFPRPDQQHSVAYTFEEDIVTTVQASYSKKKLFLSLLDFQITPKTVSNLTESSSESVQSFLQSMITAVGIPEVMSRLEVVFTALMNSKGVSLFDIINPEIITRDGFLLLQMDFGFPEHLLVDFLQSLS
Measurement Kind: inhibition at 30 mg/kg (%)
Quick note: give the figure in %, leave out the unit.

Reference set, count: 3
Compound	inhibition at 30 mg/kg (%)
CCc1c(C)c(Cl)c2c(c1OC(=O)C1(C)C3CCC1CC3)Oc1ccc([C@@H](O)CC(C)(C)C)c(OC)c1C(=O)OC2 (stereo partly drawn)	56
COc1c([C@@H](O)CC(C)C)ccc2c1C(=O)OCc1c(Cl)c(C)c(C3CC3)c(OC(=O)C3(C)C4CCC3CC4)c1O2 (stereo partly drawn)	14
COCc1c(C)c(Cl)c2c(c1OC(=O)C1(C)C3CCC1CC3)Oc1ccc(C(O)CC(C)(C)C)c(OC)c1C(=O)OC2 (stereo not drawn)	7

May I ask what inhibition at 30 mg/kg has been recorded for CCc1c(C)c(Cl)c2c(c1OC(=O)C1(C)C3CCC1CC3)Oc1ccc([C@@H](O)CC(C)C)c(OC)c1C(=O)OC2 (stereo partly drawn) ? 20

May I ask what inhibition at 30 mg/kg has been recorded for COc1c([C@@H](O)CC(C)(C)C)ccc2c1C(=O)OCc1c(Cl)c(C)c(Br)c(OC(=O)C3(C)C4CCC3CC4)c1O2 (stereo partly drawn) ? 48

May I ask what inhibition at 30 mg/kg has been recorded for COc1c([C@@H](O)CC(C)C)ccc2c1C(=O)OCc1cc(C)c(C3CC3)c(OC(=O)C3(C)C4CCC3CC4)c1O2 (stereo partly drawn) ? 26
